target_of_assay: Histone deacetylase
test_description: Inhibition of nuclear HDAC isolated from human HeLa cells
Type: cell-based
Lab note: compare IC50 with 0.1 µM, writing Condition met if less and Condition not met if equal or more.

smiles_record: CCSC(=S)SCC(=O)c1cccc(S(=O)(=O)Nc2ccc3c(c2)OCO3)c1
answer_label: Condition met
--
smiles_record: CCSC(=S)SCC(=O)c1ccc(C(=O)NCc2ccccc2)cc1
answer_label: Condition met
--
smiles_record: CCSC(=S)SCC(=O)c1cccc(NS(=O)(=O)c2ccccc2)c1
answer_label: Condition not met
--
smiles_record: CCSC(=S)SCC(=O)c1cccc(NS(=O)(=O)c2ccc(Cl)cc2)c1
answer_label: Condition met
--
smiles_record: CCSC(=S)SCC(=O)c1ccc(-c2ccc(N)cn2)s1
answer_label: Condition met
--
smiles_record: CCCC(=S)SCC(=O)c1ccc(OC)cc1
answer_label: Condition not met
--
smiles_record: CCNC(=O)SCC(=O)c1ccc(OC)cc1
answer_label: Condition not met

###

Readings of IC50 for the listed molecules
target_of_assay: Histone deacetylase 1 (Homo sapiens)
Sequence (Q13547 whole entry): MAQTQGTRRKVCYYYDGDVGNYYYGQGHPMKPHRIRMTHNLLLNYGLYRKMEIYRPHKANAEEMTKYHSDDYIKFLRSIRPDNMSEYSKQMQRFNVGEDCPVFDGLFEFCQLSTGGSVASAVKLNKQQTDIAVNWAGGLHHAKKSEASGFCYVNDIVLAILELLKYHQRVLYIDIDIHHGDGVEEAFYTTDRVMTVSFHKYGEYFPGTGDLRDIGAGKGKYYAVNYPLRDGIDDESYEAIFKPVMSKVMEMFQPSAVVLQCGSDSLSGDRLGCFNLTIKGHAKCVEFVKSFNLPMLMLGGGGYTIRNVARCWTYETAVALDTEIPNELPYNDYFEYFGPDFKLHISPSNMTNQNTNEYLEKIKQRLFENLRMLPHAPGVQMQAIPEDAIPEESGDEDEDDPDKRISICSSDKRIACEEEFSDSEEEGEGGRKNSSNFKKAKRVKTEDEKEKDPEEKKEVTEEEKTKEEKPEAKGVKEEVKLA
test_description: Inhibition of recombinant HDAC1 expressed in HEK293 cells

smiles_record: CCSC(=S)SCC(=O)c1ccc(CNC(=O)c2ccccc2)cc1
target_of_assay: Histone deacetylase 1 (Homo sapiens)
IC50: 523 nM

smiles_record: CCSC(=S)SCC(=O)c1cccc(C(=O)NCCOc2ccccc2)c1
target_of_assay: Histone deacetylase 1 (Homo sapiens)
IC50: 328 nM

smiles_record: CCNC(=S)SCC(=O)c1ccc(NC(C)=O)cc1
target_of_assay: Histone deacetylase 1 (Homo sapiens)
IC50: 141 nM

smiles_record: CCSC(=S)SCC(=O)c1ccc(NC(C)=O)cc1
target_of_assay: Histone deacetylase 1 (Homo sapiens)
IC50: 1680 nM

smiles_record: CCSC(=S)SCC(=O)c1ccc(Nc2ncnc3ccccc23)cc1
target_of_assay: Histone deacetylase 1 (Homo sapiens)
IC50: 25800 nM

smiles_record: CCSC(=S)SCC(=O)c1ccc(C(=O)NCc2cc(C)cc(C)c2)s1
target_of_assay: Histone deacetylase 1 (Homo sapiens)
IC50: 587 nM

smiles_record: CCSC(=S)SCC(=O)c1ccc(NC(=O)c2cnc3ccccc3c2)cc1
target_of_assay: Histone deacetylase 1 (Homo sapiens)
IC50: 980 nM

smiles_record: CCSC(=S)SCC(=O)c1ccc(C(=O)NCc2ccccc2)cc1
target_of_assay: Histone deacetylase 1 (Homo sapiens)
IC50: 5780 nM

smiles_record: CCSC(=S)SCC(=O)c1ccc(CN(C)C(C)=O)cc1
target_of_assay: Histone deacetylase 1 (Homo sapiens)
IC50: 946 nM

###

target_of_assay: Histone deacetylase
test_description: Inhibition of nuclear HDAC isolated from human HeLa cells
Format: cell-based
Readings of log10 of IC50 for the listed compounds
test_readout: log10 of IC50 (log10 of the value in µM)

smiles_record: CCSC(=S)SCC(=O)c1ccc(C(=O)NCc2ccccc2)s1
test_readout: log10 of IC50
observed: -1.72
//
smiles_record: CCSC(=S)SCC(=O)c1ccc(CC(=O)NCc2ccc(OC)cc2)s1
test_readout: log10 of IC50
observed: -1.59
//
smiles_record: CCOC(=S)SCC(=O)c1ccc(NC(C)=O)cc1
test_readout: log10 of IC50
observed: -0.41
//
smiles_record: CCSC(=S)SCC(=O)c1ccc(C(=O)N[C@@H](C)c2ccccc2)s1
test_readout: log10 of IC50
observed: -1.31
//
smiles_record: CCNC(=S)SCC(=O)c1ccc(OC)cc1
test_readout: log10 of IC50
observed: -0.71
//
smiles_record: CCSC(=S)SCC(=O)c1ccc(NC(=O)c2cnc3ccccc3c2)cc1
test_readout: log10 of IC50
observed: -1.18
//
smiles_record: CCSC(=S)SCC(=O)c1ccc(CNC(=O)c2ccccc2)cc1
test_readout: log10 of IC50
observed: -1.34
//
smiles_record: CCSC(=S)SCC(=O)c1ccc(CCNC(C)=O)cc1
test_readout: log10 of IC50
observed: -0.23
//
smiles_record: CCSC(=S)SCC(=O)c1ccc(NC(C)=O)cc1
test_readout: log10 of IC50
observed: -0.50
//
smiles_record: CCOC(=O)SCC(=O)c1ccc(OC)cc1
test_readout: log10 of IC50
observed: 0.45
